B1: glmS ribozyme (parent)
chain: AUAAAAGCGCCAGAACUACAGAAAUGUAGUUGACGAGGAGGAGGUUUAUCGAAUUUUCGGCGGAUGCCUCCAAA

Variants of: B1
Assay: self-cleavage kobs at 2500 uM GlcN6P; higher = faster cleavage; RNA array
Details: with glucosamine-6-phosphate
Variants at the floor of the assay were thinned out.
Classification field: enter class 1 for self-cleavage kobs at 2500 uM GlcN6P values not below 0.0007 s⁻¹, class 0 for values below it.

* C16G C71A | class 0
* G38U U57A C71G | class 0
* A39U U46G | class 1
* A14U A15C A33C C61G U65G | class 0
* A53C C70G | class 0
* G7A C50U | class 0
* U55G C71A | class 1
* A15G C58A U69G | class 0
* A14U U45A | class 1
* A39U U65G | class 1
* U46G C50A C67G | class 0
* G13U A14U A48U | class 0
* A15C C67A | class 0
* G41A A64C | class 0
* G43A C67G C68G | class 0
* G38A C50G A52G | class 0
* A52U | class 0
* A36U U55C C58G | class 0
* A15G U55A G66C | class 1
* G32C G62C C67U | class 0
* A12C U54C | class 1
* G7C A42G | class 0
* G9U A39G | class 0
* G44C U46A | class 0
* C10U A12C | class 0
* G44U G62U C68A | class 0
* G29U G35C A52G | class 0
* A6C C8G G35C C58U C67G | class 0
* U49C U55A | class 0
* G43A G51U G63C A64G | class 0
* C16U A33G C50U U54G | class 0
* A12U G35U U49C | class 0
* G13C G29C G44U C50A G62C | class 0
* G9U C16A G59U G60U | class 0
* A6C G7C C10U G29C C58G | class 0
* U30A U31C | class 1
* A6G U30A A39U G60U | class 0
* A39U U56G | class 1
* G38A G40U | class 0
* U31C U56C C70G | class 0
* U30C G37C G38C C61U | class 0
* C11G A36C G41C G60A | class 0
* A12G A15C | class 0
* C16U U30C | class 0
* C11U U49A A52G | class 0
* A12U G29C A36U G44U C61G | class 0
* A14G C34A U55G C70A | class 0
* U47C A53G | class 1
* G13C U69C | class 0
* G9C U49C | class 0
* G60U A64G | class 0
* G7A G32U C58U C67U | class 0
* G40U C71U | class 1
* A48U C61A C67U | class 0
* G9U A36C | class 0
* G7C C50U G51U C70A | class 0
* A12C C50G | class 0
* G7U G13A G29U | class 0
* A48U C71U | class 0
* A6U A12U U55A | class 0
* C11A A12U A36C A48C G60U G62A | class 0
* C16A A64G | class 1
* A12C A33G | class 0
* A14G U55G | class 1
* G13C A33G G35A A48G A64G | class 0
* G62U G63A | class 0
* G43U U47G U65C | class 0
* A14C U56G U57A C71A | class 0
* G66U C68A | class 0
* G29U G32A | class 1
* A48G U57A | class 0
* A48G G59A | class 0
* U56G A64G | class 1
